Recorded z-score by entry
Target: NADPH oxidase 2 (Homo sapiens)
Assay: compounds shifting NOX2 Amplex Red fluorescence – cell-based, HEK293-NOX2, PMA-stimulated, NOX inhibitor project, primary screen (AID 1159); note: test concentration not given here
Conditions: 45 min, higher = more signal, called active from +8 up or from −8 down
Give the figure only, with no unit attached.

Example results:
In [3]: df
Out[3]:
                                   compound  measure_name  obs_value
0  CCOC(=O)C[C@H]1[C@H](OC(=O)c2cc3ccccc3oc2=O)[C@@H](NC(=O)CC(C)C)c2cc(OCCCO)ccc2N1C(=O)Cc1ccc(OC)cc1       z-score      0.166
1  CO[C@H]1O[C@H](CO)[C@@H](OC(=O)Nc2ccccc2-c2ccccc2)[C@H](OC(=O)Nc2ccccc2)[C@H]1OC(=O)Nc1ccccc1       z-score      -1.62
2  COc1ccc(C(=O)Nc2cccc(CN3C(=O)[C@@]4(O[C@@H](CC(=O)N5CCC[C@H]5CO)[C@H]([Si](C)(C)c5ccc(OC)cc5)[C@H]4C)c4ccccc43)c2)cc1       z-score       1.24

Need z-score, item CCOc1cc(C(O)C2C=CC3C(=O)N(c4ccccc4)C(=O)C3N2Nc2ccccc2F)ccc1O (centres undefined) -2.32
